Reported combination Emax values are given for each entry in this list.
System: NCI-H2342 (Lung Adenocarcinoma)
assay-procedure: combination Emax (second highest fraction inhibited in the dose matrix, 72 h); higher = more inhibition; extreme values may be limits of the assay

{"compound": "COc1cccc(OCCCN)c1-c1cc(Nc2cnc(C#N)cn2)n[nH]1 [Prexasertib] + C[C@@H]1COCCN1C2=NC(=NC(=C2)C3(CC3)[S@](=N)(=O)C)C4=C5C=CNC5=NC=C4 [AZD6738] (first compound max 1 µM, 7x7, partner max 10 µM)", "assay-system": "NCI-H2342 (Lung Adenocarcinoma)", "combination Emax": 0.294}
{"compound": "CC1(C)CCC(CN2CCN(c3ccc(C(=O)NS(=O)(=O)c4ccc(NCC5CCOCC5)c([N+](=O)[O-])c4)c(Oc4cnc5[nH]ccc5c4)c3)CC2)=C(c2ccc(Cl)cc2)C1 [Venetoclax] + CCN(CCO)CCCOc1ccc2c(Nc3cc(CC(=O)Nc4cccc(F)c4)[nH]n3)ncnc2c1 [AZD2811] (first compound max 1 µM, 7x7, partner max 1 µM)", "assay-system": "NCI-H2342 (Lung Adenocarcinoma)", "combination Emax": 0.217}
